Record form. Attribute: mortality. Fill in for each entry.
assayNotes: Cytotoxicity against mouse NIH/3T3 cells assessed as dead cells at 12.5 ug/mL after 72 hrs by Alamar Blue assay relative to control
Format: cell-based
testContext: nih3t3, 72 h
The response must be a number in % with no trailing unit.

Query O=C1C2=C(OC3(C=CC=C3)C2)C(=O)c2ccccc21 yields mortality of 9

Query Cc1ccc(C2CC3=C(O2)C(=O)c2ccccc2C3=O)cc1 (centres undefined) yields mortality of 0

Query O=C1C(=O)c2ccccc2C2=C1CC(c1ccc(Cl)cc1)O2 (centres undefined) yields mortality of 0

Query CC1(C)CC2=C(O1)C(=O)c1ccccc1C2=O yields mortality of 20

Query O=C1C2=C(OC(c3ccc(Cl)cc3)C2)C(=O)c2ccccc21 (centres undefined) yields mortality of 0

Query O=C1C(=O)c2ccccc2C2=C1CC1(C=CC=C1)O2 yields mortality of 8

Query O=C1C(=O)c2ccccc2C2=C1CC(c1ccc(Br)cc1)O2 (centres undefined) yields mortality of 0

Query Cc1ccc(C2CC3=C(O2)c2ccccc2C(=O)C3=O)c(C)c1 (centres undefined) yields mortality of 17

Query Cc1ccc(C2CC3=C(O2)c2ccccc2C(=O)C3=O)cc1 (centres undefined) yields mortality of 0
